- Test system: GDP-bound KRAS wild-type protein (Homo sapiens, UniProt P01116)
- Sequence (P01116 whole entry): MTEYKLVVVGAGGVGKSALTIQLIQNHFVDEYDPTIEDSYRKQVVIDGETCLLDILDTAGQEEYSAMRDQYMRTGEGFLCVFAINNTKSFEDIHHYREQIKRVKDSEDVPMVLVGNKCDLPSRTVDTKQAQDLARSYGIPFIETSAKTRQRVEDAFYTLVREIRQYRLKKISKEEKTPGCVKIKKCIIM
- Assay details: Binding to KRAS by surface plasmon resonance (SPR), Single Cycle Kinetics
- Condition details: SPR Single Cycle Kinetics, GDP-bound KRAS wild-type protein, 1:1 binding model; read-out: KRAS KD
Where a SMILES comes first, the peptide text is derived from it. Bridges are numbered along the chain shown (N, C = ends). [ ]: non-standard residue; d: D form. The star is where a group is joined. hPhe(3-Cl-4-CF3) = N[C@@H](CCc1ccc(C(F)(F)F)c(Cl)c1)C(=O)O; NPrPhe(4-CF3) = CCCN[C@@H](Cc1ccc(C(F)(F)F)cc1)C(=O)O; NMeGly(cPent) = CN[C@H](C(=O)O)C1CCCC1; Pro(4,4-F2) = O=C(O)[C@@H]1CC(F)(F)CN1; NMeGly(cBu) = CN[C@H](C(=O)O)C1CCC1; NMeD = CN[C@@H](CC(=O)O)C(=O)O; Morpholide = C1CN(*)CCO1; NMeA = CN[C@@H](C)C(=O)O; Ac5c = NC1(C(=O)O)CCCC1; Aze = O=C(O)[C@@H]1CCN1; Sar = CNCC(=O)O
Experimental readout: Kd (nM)

[[record]]
compound = "CCCN1C(=O)[C@@H]2CCN2C(=O)[C@H](C)N(C)C(=O)[C@H]([C@@H](C)CC)NC(=O)[C@H](C2CCC2)N(C)C(=O)C[C@@H](C(=O)N2CCOCC2)N(C)C(=O)[C@H](C2CCCC2)N(C)C(=O)C2(CCCC2)NC(=O)[C@@H]2CC(F)(F)CN2C(=O)[C@H](CCc2ccc(C(F)(F)F)c(Cl)c2)NC(=O)CN(C)C(=O)[C@@H]1Cc1ccc(C(F)(F)F)cc1 [PP0204] ([NMeGly(cBu)]I[NMeA][Aze][NPrPhe(4-CF3)][Sar][hPhe(3-Cl-4-CF3)][Pro(4,4-F2)][Ac5c][NMeGly(cPent)][NMeD]-Morpholide; lactam N-11)"
observed_result = 0.21

